Listed here are compounds together with their documented growth.
Tested on: MCF7 breast
Experiment: NCI-60 one-dose screen, 48 h (100 = growth as untreated, 0 = no growth, -100 = all killed)
Conditions: 10 µM unless noted
About 83,000 compounds went through this panel and 20% of them were active in at least one assay; those are over-represented in the sample as a whole. Active and inactive are the calls of the source. How the source made its calls: active means growth percent below 10; inactive means the rest.
measured_parameter: growth

1. O=C1N/C(=N/O)S/C1=C/c1cn(-c2ccccc2)nc1-c1ccccc1
82.2% (inactive)
2. Cc1cc(C)on1
96.6% (inactive)
3. C[N+](C)(C)CCOC(OCC[N+](C)(C)C)(c1ccccc1)c1ccccc1
92.8% (inactive)
4. O=C(O)CC1Sc2ccccc2NC1=O (stereo unspecified)
255% (inactive)
5. COc1ccc(/C=C(\C#N)n2nnc3cc(F)c(F)cc32)c(OC)c1OC
27.2% (inactive)
6. C=C1c2c(C)nn(-c3ccc(NC(C)=O)cc3)c2N(C)C23CC1C1(C)c4c(C)nn(-c5ccc(NC(C)=O)cc5)c4N(C)C(C)(CC12)C3 (stereo unspecified)
9.67% (active)
7. CS(=O)(=O)c1ccc(-c2nc3cc(Cl)ccc3n2CC(=O)N/N=C/c2ccc(Cl)cc2)cc1
37.4% (inactive)
8. O=C1C=CC(=Nc2cc(Br)c(O)c(Br)c2)C=C1
40.1% (inactive)
9. COc1cccc(CCC2CCCN(c3cc(C)nc(N)n3)C2)c1 (stereo unspecified)
17.8% (inactive)
10. CCN(CC)CCCC(C)NCc1ccccc1 (stereo unspecified)
93.8% (inactive)
11. OC(CBr)c1ccnc2ccccc12 (stereo unspecified)
96.3% (inactive)
